We begin with a simple list: items and their reported kon.
- measured.on: T1, IL-11Rα as used in the Biacore kinetics of Example 14 (UniProt Q14626 23-363, limits assumed)
- T1 sequence (looked up): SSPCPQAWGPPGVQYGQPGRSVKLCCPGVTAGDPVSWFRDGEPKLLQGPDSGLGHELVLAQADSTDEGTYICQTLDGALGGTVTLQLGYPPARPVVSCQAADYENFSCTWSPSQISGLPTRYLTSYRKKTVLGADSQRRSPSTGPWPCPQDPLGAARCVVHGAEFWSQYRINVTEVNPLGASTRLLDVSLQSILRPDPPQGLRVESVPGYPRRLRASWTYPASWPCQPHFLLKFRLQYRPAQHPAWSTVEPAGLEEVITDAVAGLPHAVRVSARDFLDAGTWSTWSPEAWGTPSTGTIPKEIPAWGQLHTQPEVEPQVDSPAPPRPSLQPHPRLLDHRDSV
- test.details: SPR (Biacore T200), multi-cycle kinetics, 25 C, HBS-P+ pH 7.4 with 0.1% BSA
Expressed in M⁻¹ s⁻¹, but write only the number.

As a guide, the following entries are already answered.
binder	units	kon
Humanised BSO-9A7 variant VH4/VL3 (antibody, V domains shown, Variable domains only) VH: QVQLVQSGAEVKKPGASVKVSCKASGYTFTNYWMHWLRQRPGQGLEWIGNIGPSDSKTHYNQKFKDRVTMTVDKSTSTAYMELSSLRSEDTAVYYCARGDYVLFTYWGQGTLVTVSS VL: DIVLTQSPATLSLSPGERATLSCRASQSISNNLHWYQQKPGQAPRLLIKYASQSISGIPARFSGSGSGTDFTLTISSLEPEDFAVYFCQQSYSWPLTFGQGTKLEIK	M⁻¹ s⁻¹	178000
Anti-IL-11Rα antibody clone BSO-9A7 (antibody, V domains shown, also called RA7; 9A7 VH/VL) VH: QVQLQQPGAELVRPGSSVKLSCKASGYTFTNYWMHWLKQRPVQGLEWIGNIGPSDSKTHYNQKFKDKATLTVDKSSSTAYMQLNSLTSEDSAVYYCARGDYVLFTYWGQGTLVTVSA VL: DIVLTQSPATLSMTPGDSVSLSCRASQSISNNLHWYQQKSHESPRLLIKYASQSISGIPSRFSGSGSGTDFTLSFNSVETEDFGVYFCQQSYSWPLTFGAGTKLELK	M⁻¹ s⁻¹	216000
Humanised BSO-9A7 variant VH3/VL4 (antibody, V domains shown, Variable domains only) VH: QVQLVQSGAEVKKPGASVKVSCKASGYTFTNYWMHWLRQRPGQGLEWIGNIGPSDSKTHYNQKFKDRATLTVDKSTSTAYMELSSLRSEDTAVYYCARGDYVLFTYWGQGTLVTVSS VL: DIVLTQSPATLSLSPGERATLSCRASQSISNNLHWYQQKPGQAPRLLIKYASQSISGIPARFSGSGSGTDFTLTISSLEPEDFAVYYCQQSYSWPLTFGQGTKLEIK	M⁻¹ s⁻¹	201000

Field: next binder
For the binder Humanised BSO-9A7 variant VH3/VL2 (antibody, V domains shown, T0003 heads the columns 'Heavy chain' and 'Light chain', but the entries are variable domains) VH: QVQLVQSGAEVKKPGASVKVSCKASGYTFTNYWMHWLRQRPGQGLEWIGNIGPSDSKTHYNQKFKDRATLTVDKSTSTAYMELSSLRSEDTAVYYCARGDYVLFTYWGQGTLVTVSS VL: DIVLTQSPATLSLSPGERATLSCRASQSISNNLHWYQQKSGQAPRLLIKYASQSISGIPARFSGSGSGTDFTLTISSLETEDFAVYFCQQSYSWPLTFGQGTKLEIK , give its measured kon value.
221000

Source: patent US20190389957A1
